Biological target: T1, Recombinant human G-CSFR (Glu25-Pro621, 381-GR/CF, R&D Systems) (human, UniProt Q99062 25-621)
T1 construct: range 25-621; Bought protein, amine-coupled to a CM5 chip for SPR; also called rhG-CSFR; granulocyte-colony stimulating factor receptor
T1 sequence (looked up): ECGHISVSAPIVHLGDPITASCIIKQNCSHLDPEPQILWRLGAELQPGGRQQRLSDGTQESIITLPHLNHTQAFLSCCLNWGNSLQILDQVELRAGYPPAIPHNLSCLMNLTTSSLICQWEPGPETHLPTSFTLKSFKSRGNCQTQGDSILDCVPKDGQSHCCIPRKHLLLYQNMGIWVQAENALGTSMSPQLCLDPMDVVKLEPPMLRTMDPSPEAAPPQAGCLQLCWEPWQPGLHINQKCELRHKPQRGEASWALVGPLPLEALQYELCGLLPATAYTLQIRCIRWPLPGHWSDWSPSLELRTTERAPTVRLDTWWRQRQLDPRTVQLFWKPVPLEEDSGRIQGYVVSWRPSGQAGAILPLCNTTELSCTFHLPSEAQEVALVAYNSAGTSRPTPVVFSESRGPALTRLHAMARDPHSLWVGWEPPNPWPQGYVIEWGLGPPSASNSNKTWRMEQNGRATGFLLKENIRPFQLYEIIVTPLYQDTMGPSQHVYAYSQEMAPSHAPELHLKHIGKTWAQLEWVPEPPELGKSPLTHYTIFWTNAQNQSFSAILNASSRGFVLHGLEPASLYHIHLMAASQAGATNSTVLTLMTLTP
Assay: SPR, Biacore X100, multi-cycle kinetics, rhG-CSFR amine-coupled to CM5 chip, design as analyte, 1:1 model; series of Fig. 13 (from 31 nM)
test readout: kon (M⁻¹ s⁻¹)
Only the number, expressed in M⁻¹ s⁻¹, is required.

INSERT INTO results (binder, test_readout, numeric_readout) VALUES
  ('bv23 (designed binder, Expressed from pET28a with N-terminal His-tag and thrombin cleavage site; also called Boskar4 variant bv23) MAALAAALAEIYKGLAEYQARLKSLEGISPELGPALDALRYDMADFAYLMAQAMEEGLDSLPQSFLWKALEMIRWIQADAAALREKLAATYKGNDRAAAAVEIAAQLEAFLEKAYQILRHLAAA', 'kon', 860000),
  ('bv24 (designed binder, Expressed from pET28a with N-terminal His-tag and thrombin cleavage site; also called Boskar4 variant bv24) MAALAAALAEIYKGLAEYQARLKSLEGISPELGPALDALRWDMADFACLMAQAMEEGLDSLPQRFLWKALEMIRKIQADAAALREKLAATYKGNDRAAAAVEIAAQLEAFLEKAYQILRHLAAA', 'kon', '1e+06'),
  ('bv22 (designed binder, Expressed from pET28a with N-terminal His-tag and thrombin cleavage site; also called Boskar4 variant bv22; second-generation variant) MAALAAALAEIYKGLAEYQARLKSLEGISPELGPALDALRYDMADFAYLMAQAMEEGLDSLPQRFLWKALEMIRKIQADAAALREKLAATYKGNDRAAAAVEIAAQLEAFLEKAYQILRHLAAA', 'kon', 880000);

Next binder, please.
Entry bv21 (designed binder, Expressed from pET28a with N-terminal His-tag and thrombin cleavage site; also called Boskar4 variant bv21) MAALAAALAEIYKGLAEYQARLKSLEGISPELGPALDALRWDMADFAYLMAQAMEEGLDSLPQRFLWKALEMIRKIQADAAALREKLAATYKGNDRAAAAVEIAAQLEAFLEKAYQILRHLAAA needs its kon filled in; supply it.
820000
